- Target system: Solute carrier family 2, facilitated glucose transporter member 1 (Homo sapiens)
- Procedure text: ST_JUDE_LEISH: Cytotoxicity at 2uM final concentration against transgenic Leishmania Mexicana promastigotes LmGLUT1 that are glucose transport deficient and complemented with the human glucose transporter GLUT1. Activity is measured by DNA content using SYBR green in vitro
- Assay type: functional
inhibition for assorted compounds
Write the answer as a number in %, unit excluded.

Solved cases (5 shown):
COc1cc(Cc2cnc(N)nc2N)c2c(c1OC)OC(C)C=C2 (stereo not given) ... 1.59
COc1ccc(CNCc2cccc(-c3ccc(-c4nc5cc(C(F)(F)F)ccc5[nH]4)cc3)c2)cc1 ... 7.79
CC(C)(CNC(=O)C1CCN(CC2CCCCC2)CC1)c1nc(-c2ccc(Cl)c(O)c2)c(-c2ccncc2)[nH]1 ... 1.84
Cc1cc(N[C@@H](CC(C)C)C(=O)NCCc2ccccc2)nc(NCC2CCCCC2)n1 ... 6.58
CNc1nc(N/N=C/c2cc3c(cc2[N+](=O)[O-])OCO3)nc(Nc2cccc(C(F)(F)F)c2)n1 ... 6.24

Recorded result, CCCCCCN1CCC(NCc2cccc([N+](=O)[O-])c2)CC1 , inhibition: 3.72

Recorded result, CN1CCC(NCc2ccc(-c3ccc(Cl)cc3)cc2)CC1 , inhibition: 5.65

Recorded result, CNC(=O)c1cnc(Nc2ccc(N3CCN(C)CC3)cc2)nc1Nc1ccccc1OC , inhibition: 4.96

Recorded result, COc1cccc(-c2ccc3c(-c4cccc(S(C)(=O)=O)c4)cnc(N)c3c2)c1 , inhibition: 8.21

Recorded result, CC1CN(c2ccc(C(=O)NCC3CC3)cc2NC(=O)OCc2ccccc2)CC(C)O1 (stereo not given) , inhibition: 0.19
